Test system: lambsquarters (Chenopodium album, CHEAL)
PROCEDURE_TEXT: Pre-emerge test, greenhouse herbicide activity screening
Type: in vivo
CONDITION_LABEL: 63 g ai/ha; pre-emerge; rated 14 days after application; 0 = no damage, 100 = complete death
ASSAY_ENDPOINT: Pre-emerge Herbicidal Activity CHEAL (phytotoxicity rating, scale 0-100)
Just the number, please, no unit after it.

Problem: What does the data say about its Pre-emerge Herbicidal Activity CHEAL (phytotoxicity rating, scale 0-100)? Entry: Cn1c(C(F)(F)F)cc(=O)n(-c2c(F)cc(Cl)c(OCc3ccccc3)c2N)c1=O [Compound 1-22]
Solution: 95

Problem: Endpoint output: Pre-emerge Herbicidal Activity CHEAL (phytotoxicity rating, scale 0-100) of CCOC(=O)CC(=O)Nc1c(OC(=O)CC(=O)OCC)c(Cl)cc(F)c1-n1c(=O)cc(C(F)(F)F)n(C)c1=O [2-16] . Value?
Solution: 95

Problem: Requested field: Pre-emerge Herbicidal Activity CHEAL (phytotoxicity rating, scale 0-100). Item: COc1c(Cl)cc(F)c(-n2c(=O)cc(C(F)(F)F)n(C)c2=O)c1NC(=O)C1CCCCC1 [2-19]
Solution: 95

Problem: Recorded Pre-emerge Herbicidal Activity CHEAL (phytotoxicity rating, scale 0-100) for CCOC(=O)C(C)Nc1cc(OC(F)F)cc(F)c1-n1c(=O)cc(C(F)(F)F)n(C)c1=O (stereo not shown) [Compound 1-53] , please?
Solution: 100

* * *

System: lambsquarters (Chenopodium album, CHEAL)
PROCEDURE_TEXT: Post-emerge test, greenhouse herbicide activity screening
Assay type: in vivo
CONDITION_LABEL: Rate 63 g ai/ha; rating scale 0-100 (0 no damage, 100 complete death); 14 days after application
Decision: Post-emerge Herbicidal Activity, phytotoxicity rating CHEAL >= 80 yields rule met, all other cases yield rule not met.

Problem: Identify whether the reported Post-emerge Herbicidal Activity, phytotoxicity rating CHEAL of the following compound is 80 or greater: CCOC(=O)C(Br)Cc1c(OC)c(Cl)cc(F)c1-n1c(=O)cc(C(F)(F)F)n(C)c1=O (single isomer, unassigned) [14-32]
Solution: rule not met

Problem: Reported Post-emerge Herbicidal Activity, phytotoxicity rating CHEAL reaches at least 80 for CCOC(=O)C(Br)Cc1c(OC)c(Cl)cc(F)c1-n1c(=O)cc(C(F)(F)F)n(C)c1=O (single isomer, unassigned) [14-33] ?
Solution: rule not met

Problem: Assess whether reported Post-emerge Herbicidal Activity, phytotoxicity rating CHEAL for COc1c(Cl)cc(F)c(-n2c(=O)cc(C(F)(F)F)n(C)c2=O)c1CC(Cl)C(=O)OCCOc1ccccc1 (single isomer, unassigned) [14-27] sits at 80 or higher.
Solution: rule met

Problem: Has COc1c(Cl)cc(F)c(-n2c(=O)cc(C(F)(F)F)n(C)c2=O)c1CC(Cl)C(=O)OCCC#N (stereo not drawn) [14-29] a recorded Post-emerge Herbicidal Activity, phytotoxicity rating CHEAL greater than or equal to 80?
Solution: rule not met

Problem: Item CCCCCCOC(=O)C(Cl)Cc1c(OC)c(Cl)cc(F)c1-n1c(=O)cc(C(F)(F)F)n(C)c1=O (single isomer, unassigned) [14-12] with Post-emerge Herbicidal Activity, phytotoxicity rating CHEAL of 80 or above?
Solution: rule met

* * *

Test system: green foxtail (Setaria viridis, SETVI)
PROCEDURE_TEXT: Post-emerge test, greenhouse herbicide activity screening
Assay type: in vivo
CONDITION_LABEL: 63 g ai/ha; phytotoxicity rating 0-100 (0 no damage, 100 complete death), 14 days after application
Description: A standard greenhouse herbicide activity screening system was used to evaluate the herbicidal efficacy and crop safety of these test compounds. […] At 14 days after application of the test materials, phytotoxicity ratings were recorded. […]
ASSAY_ENDPOINT: Post-emerge Herbicidal Activity SETVI
Lab note: record just the number, no unit beside it.

Problem: Requested read-out: Post-emerge Herbicidal Activity SETVI. Entry: CCOC(=O)C(C)Nc1cc(Cl)cc(F)c1-n1c(=O)cc(C(F)(F)F)n(C)c1=O (stereo not shown) [Compound 1-54]
Solution: 40

Problem: Could you tell me which Post-emerge Herbicidal Activity SETVI is on file for C=C(C)C(=O)N(C(=O)C(=C)C)c1c(OC)c(Cl)cc(F)c1-n1c(=O)cc(C(F)(F)F)n(C)c1=O [2-6] ?
Solution: 0

Problem: Given the entry CCOC(=O)C(C)Nc1c(OC)c(Cl)cc(F)c1-n1c(=O)cc(C(F)(F)F)n(C)c1=O (stereo not shown) [Compound 1-55] , report its measured Post-emerge Herbicidal Activity SETVI.
Solution: 0

Problem: I'd like to know its Post-emerge Herbicidal Activity SETVI. The compound in question is Cn1c(C(F)(F)F)cc(=O)n(-c2c(F)cc(Cl)c(OCC#N)c2NC(=O)C(F)(F)F)c1=O [2-11]
Solution: 0

Problem: Any idea what its Post-emerge Herbicidal Activity SETVI is? The compound is COc1c(Cl)cc(F)c(-n2c(=O)cc(C(F)(F)F)n(C)c2=O)c1NC(C)=O [2-1]
Solution: 0

Problem: Look at this compound and give its reported Post-emerge Herbicidal Activity SETVI. Cn1c(C(F)(F)F)cc(=O)n(-c2c(F)cc(Cl)c(OCC#N)c2N)c1=O [Compound 1-18]
Solution: 70

Problem: Please give the measured Post-emerge Herbicidal Activity SETVI for this compound: CCOC(=O)C(C)Oc1c(Cl)cc(F)c(-n2c(=O)cc(C(F)(F)F)n(C)c2=O)c1N (stereo not shown) [Compound 1-60]
Solution: 0

Problem: For C=C(C)C(=O)Nc1c(OC)c(Cl)cc(F)c1-n1c(=O)cc(C(F)(F)F)n(C)c1=O [2-5] , what is its reported Post-emerge Herbicidal Activity SETVI?
Solution: 0

Problem: Looking for the measured Post-emerge Herbicidal Activity SETVI of CCOC(=O)C(C)Nc1cc(OC(F)F)cc(F)c1-n1c(=O)cc(C(F)(F)F)n(C)c1=O (stereo not shown) [Compound 1-53] , can you help?
Solution: 0

Problem: Fill in the blank: the reported Post-emerge Herbicidal Activity SETVI of COc1c(Cl)cc(F)c(-n2c(=O)cc(C(F)(F)F)n(C)c2=O)c1NC(=O)C1CCCCC1 [2-19] is ____.
Solution: 0

Problem: Looking for the measured Post-emerge Herbicidal Activity SETVI of CC(C)Oc1c(Cl)cc(F)c(-n2c(=O)cc(C(F)(F)F)n(C)c2=O)c1N [Compound 1-63] , can you help?
Solution: 0

Problem: Dear colleague, I am looking for the recorded Post-emerge Herbicidal Activity SETVI of the following compound: C=Cc1ccc(C(=O)Nc2c(OC)c(Cl)cc(F)c2-n2c(=O)cc(C(F)(F)F)n(C)c2=O)cc1 [2-31]
Solution: 10

Problem: Reported Post-emerge Herbicidal Activity SETVI for COc1c(Cl)cc(F)c(-n2c(=O)cc(C(F)(F)F)n(C)c2=O)c1N(C)C [Compound 1-11] : what is it?
Solution: 0

Problem: Bench note: what Post-emerge Herbicidal Activity SETVI did COc1c(Cl)cc(F)c(-n2c(=O)c([N+](=O)[O-])c(C(F)(F)F)n(C)c2=O)c1[N+](=O)[O-] [Compound 1-9] show?
Solution: 90

Problem: Look at this compound and give its reported Post-emerge Herbicidal Activity SETVI. COc1c(Cl)cc(F)c(-n2c(=O)c(N)c(C(F)(F)F)n(C)c2=O)c1N [Compound 1-10]
Solution: 0

Problem: Bench note: what Post-emerge Herbicidal Activity SETVI did C=CC(=O)N(C(=O)C=C)c1c(OC)c(Cl)cc(F)c1-n1c(=O)cc(C(F)(F)F)n(C)c1=O [2-4] show?
Solution: 0

* * *

Test system: green foxtail (Setaria viridis, SETVI)
PROCEDURE_TEXT: Pre-emerge test, greenhouse herbicide activity screening
Assay type: in vivo
CONDITION_LABEL: 63 g ai/ha; rated 14 days after application; 0 = no damage, 100 = complete death
Give Pre-emerge Herbicidal Activity, phytotoxicity rating (0-100), SETVI for every item shown.
Provide a numeric answer; units are not to be included.

Problem: Item COc1c(Cl)cc(F)c(-n2c(=O)cc(C(F)(F)F)n(N)c2=O)c1NC(=O)c1ccc2ccccc2c1 has what recorded Pre-emerge Herbicidal Activity, phytotoxicity rating (0-100), SETVI?
Solution: 0

Problem: Look up Pre-emerge Herbicidal Activity, phytotoxicity rating (0-100), SETVI for this compound: COc1c(Cl)cc(F)c(-n2c(=O)cc(C(F)(F)F)n(C)c2=O)c1N(C(=O)c1ccc(F)c(F)c1)C(=O)c1ccc(F)c(F)c1
Solution: 80

Problem: Data request, read-out Pre-emerge Herbicidal Activity, phytotoxicity rating (0-100), SETVI, for COc1c(Cl)cc(F)c(-n2c(=O)cc(C(F)(F)F)n(C)c2=O)c1NC(=O)C=Cc1ccccc1
Solution: 90

Problem: So what's the measured Pre-emerge Herbicidal Activity, phytotoxicity rating (0-100), SETVI for this one? COc1c(Cl)cc(F)c(-n2c(=O)cc(C(F)(F)F)n(C)c2=O)c1N(C(=O)c1ccc(C(F)(F)F)cc1)C(=O)c1ccc(C(F)(F)F)cc1
Solution: 95

Problem: What value of Pre-emerge Herbicidal Activity, phytotoxicity rating (0-100), SETVI has been reported for the following compound? CCOc1ccc(C(=O)Nc2c(OC)c(Cl)cc(F)c2-n2c(=O)cc(C(F)(F)F)n(C)c2=O)cc1
Solution: 100

Problem: I would be grateful if you could share the reported Pre-emerge Herbicidal Activity, phytotoxicity rating (0-100), SETVI for COc1c(Cl)cc(F)c(-n2c(=O)cc(C(F)(F)F)n(C)c2=O)c1NC(=O)c1ccc(-c2ccccc2)cc1 .
Solution: 0

Problem: Please give the measured Pre-emerge Herbicidal Activity, phytotoxicity rating (0-100), SETVI for this compound: COc1c(Cl)cc(F)c(-n2c(=O)cc(C(F)(F)F)n(C)c2=O)c1NC(=O)CCc1ccccc1
Solution: 100

This collection of values is drawn from patent US6355799B1.
